- Tested on: CYP3A
- PROTOCOL_DESCRIPTION: Inhibition by VOR of ATO metabolism in rat liver microsomes
- Type: in vitro ADME
- TEST_CONDITIONS: pH 7.4, probe atorvastatin (ATO), 2 μM
PROPERTY: IC50 at 20 min
Please answer in the form of a number followed by its unit of measurement.

Query :: Fill in IC50 at 20 min for record `C[C@@H](c1ncncc1F)[C@](O)(Cn1cncn1)c1ccc(F)cc1F`
Result :: 45.9 µM

---

- PROTOCOL_DESCRIPTION: Pharmacokinetic interaction study in rats, Study II: VOR with or without ATO
- Format: in vivo
- TEST_CONDITIONS: male, Sprague-Dawley, rat, plasma, po, 20 mg/kg, ATO 2 mg/kg + VOR 20 mg/kg oral
PROPERTY: half-life (min)
Hi! Could you send only the number? It should be in min, unit omitted.

Query :: Fill in half-life for record C[C@@H](c1ncncc1F)[C@](O)(Cn1cncn1)c1ccc(F)cc1F [VOR, Voriconazole]
Result :: 156
